Test: growth inhibition, single agents and combos, LFS_MB_1R, cell-based, cisplatin or BGB combos, synergistic combos for chromothripsis tumors (AID 1671452);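 also: cells exposed for 96 hours before readout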
Conditions: LFS_MB_1R medulloblastoma cells, measured here: combination with cisplatin, at 0.5 µM, stronger effect = higher value
Binary classification by inhibition, with -30% as an inclusive lower bound for 1; all other cases are 0.

Incoming: Check the entry C=CC1=C(C)C2=CC3=NC(=C(CC(=O)O)C4=NC(=C(C)C4=C(O)O)C=c4[nH]c(c(C)c4CC)=CC1=N2)C(CCC(=O)O)C3C (centres undefined) : does inhibition equal or exceed -30%?
Outgoing: 1

Incoming: Check the entry C=C1CCC(O)CC1=CC=C1CCCC2(C)C1CCC2C(C)C=CC(C)C(C)C (centres undefined) : does inhibition equal or exceed -30%?
Outgoing: 1

Incoming: Check the entry C=C(C)C1CCC2(C(=O)O)CCC3(C)C(CCC4C5(C)CCC(O)C(C)(C)C5CCC43C)C12 (centres undefined) : does inhibition equal or exceed -30%?
Outgoing: 0

Incoming: Check the entry "O=c1[nH]c(=S)[nH]c2nc(-c3ccccc3)c(-c3ccccc3)nc12" : does inhibition equal or exceed -30%?
Outgoing: 0

Incoming: Check the entry "CC(C)c1ccc(-c2cc(=O)c3ccccc3o2)cc1" : does inhibition equal or exceed -30%?
Outgoing: 0

Incoming: Check the entry "Cc1cc(C)cc(C(=O)NOCCCCCC(=O)NO)c1" : does inhibition equal or exceed -30%?
Outgoing: 1

Incoming: Check the entry "CC(C)(C#N)c1ccc(N2C(=O)OCc3cnc4ccc(-c5cnc6ccccc6c5)cc4c32)cc1" : does inhibition equal or exceed -30%?
Outgoing: 0

Incoming: Check the entry "O=C1C(=Cc2cccnc2)C(=O)c2ccccc21" : does inhibition equal or exceed -30%?
Outgoing: 1

Incoming: Check the entry COc1cccc2c1C(=O)c1c(O)c3c(c(O)c1C2=O)CC(O)(C(=O)CO)CC3OC1CC(N)C(OC2CCCCO2)C(C)O1 (centres undefined) : does inhibition equal or exceed -30%?
Outgoing: 1

###

Test: MELAS cybrid and Rieske KO viability enhancers – cell-based, MELAS cybrids, Rieske KO mouse fibroblasts, CellTiter-Glo, primary screen (AID 1508586);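 also: z relative to plate mean and SD of compound and empty wells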
Conditions: Rieske KO mouse fibroblast survival, low glucose, CellTiter-Glo 72 h
*1 amine or outer side, *2 acyl side, *3 side chain or, on linkers, in order; H or OH if unused. Where a SMILES comes first, the peptide text is derived from it. Bridges are numbered along the chain shown (N, C = ends). Roman numbers before positions name the chains, in order. [ ]: non-standard residue; d: D form. Hexamethylenediamine = C(CCCN[*:2])CCN[*:1]; Dip = N[CH](C(=O)O)C(c1ccccc1)c1ccccc1; Chg = N[CH](C(=O)O)C1CCCCC1; NMeA = CN[CH](C)C(=O)O
Measured z-score determines class: lower level: < -0.2; middle level: ≥ -0.2 and < 0.2; upper level: ≥ 0.2

Incoming: Hi, small favor: classify "CCc1c(C)[nH]n(-c2nn[nH]n2)c1=O" by its z-score when you get a moment.
Outgoing: lower level

Incoming: Hi, small favor: classify "COc1cccc2c(=O)n(Cc3ccc4ncccc4c3)cnc12" by its z-score when you get a moment.
Outgoing: middle level

Incoming: Hi, small favor: classify Cc1ccc(N2CCN(C3CCc4c(c(C(=O)N5CCSCC5)nn4C)C3)CC2)c(C)c1 (centres undefined) by its z-score when you get a moment.
Outgoing: lower level

Incoming: Hi, small favor: classify "CC(=O)Nc1nc2c(Oc3cc(-c4ccc(C(F)(F)F)cc4)ncn3)cccc2s1" by its z-score when you get a moment.
Outgoing: lower level

Incoming: Hi, small favor: classify "Cc1ccc(NC(=O)NCCSCc2ccc(CN(C)C)o2)cc1Cl" by its z-score when you get a moment.
Outgoing: lower level

Incoming: Hi, small favor: classify CNC(C)C(=O)NC(C(=O)N1CCCC1C(=O)NC(C(=O)NCCCCCCNC(=O)C(NC(=O)C1CCCN1C(=O)C(NC(=O)C(C)NC)C1CCCCC1)C(c1ccccc1)c1ccccc1)C(c1ccccc1)c1ccccc1)C1CCCCC1 (centres undefined) (I: H-[NMeA][Chg]P[Dip] / II: H-[NMeA][Chg]P[Dip]; linker I:C-II:C via Hexamethylenediamine; configuration not given here) by its z-score when you get a moment.
Outgoing: middle level

Incoming: Hi, small favor: classify "CCC(C)(C)c1nnc(NC(=O)NCc2ccco2)s1" by its z-score when you get a moment.
Outgoing: lower level

Incoming: Hi, small favor: classify CCn1c(-c2nonc2N)nc2c(C#CC(C)(C)O)ncc(OCC3CCCNC3)c21 (centres undefined) by its z-score when you get a moment.
Outgoing: upper level

Incoming: Hi, small favor: classify CN1C[C@H](C(=O)N[C@]2(C)O[C@@]3(O)[C@@H]4CCCN4C(=O)[C@H](Cc4ccccc4)N3C2=O)CC2c3cccc4[nH]cc(c34)C[C@H]21 (mixture of isomers) by its z-score when you get a moment.
Outgoing: upper level

Incoming: Hi, small favor: classify "CCCCN(Cc1ccc(C(=O)NO)cc1)C(=O)Nc1ccccc1" by its z-score when you get a moment.
Outgoing: upper level

Incoming: Hi, small favor: classify C=CCn1nc(C(=O)N2CCCC2)c2c1CCC(NCc1ccccc1OC(F)(F)F)C2 (centres undefined) by its z-score when you get a moment.
Outgoing: upper level

Incoming: Hi, small favor: classify COc1ccc(CCNC2CCc3c(c(C(=O)N(C)C)nn3CC3CCCCC3)C2)cc1 (centres undefined) by its z-score when you get a moment.
Outgoing: upper level

Incoming: Hi, small favor: classify "CCc1nc(NC(=O)N(C)Cc2cccc(-n3cccn3)c2)nn1C" by its z-score when you get a moment.
Outgoing: lower level

Incoming: Hi, small favor: classify "COc1ccc(-c2oc3ncnc(NCCO)c3c2-c2ccc(OC)cc2)cc1" by its z-score when you get a moment.
Outgoing: upper level

Incoming: Hi, small favor: classify "Cc1cc(CN(C)C(=O)c2cc(-c3cnn(C(C)C)c3)nc3cc(F)ccc23)on1" by its z-score when you get a moment.
Outgoing: upper level

Incoming: Hi, small favor: classify "C=CCNC(=O)c1cccnc1-c1ccc(OC)c2ncccc12" by its z-score when you get a moment.
Outgoing: lower level

Incoming: Hi, small favor: classify "Cc1cncc(CN2CCC(=C3c4ccc(Cl)cc4CCc4cccnc43)CC2)c1" by its z-score when you get a moment.
Outgoing: middle level

Incoming: Hi, small favor: classify "CNc1ncnc2c1ncn2[C@@H]1O[C@H](CO)[C@@H](O)[C@H]1O" by its z-score when you get a moment.
Outgoing: lower level

Incoming: Hi, small favor: classify C[C@]12CC[C@H]3c4ccc(O)cc4CC[C@H]3[C@@H]1CCC2OC(=O)CCC1CCCC1 (some centres undefined) by its z-score when you get a moment.
Outgoing: middle level
